tested on: HT-29; test: Chemosensitivity, 96 h continuous exposure, MTT assay; assay type: cell-based, human; conditions: ratio of IC50, HT29
Provide the reported Relative potency (+ anion to no anion), Ratio + anion:no anion of each item.
Please give the numeric answer without any surrounding text.

Prompt: What value of Relative potency (+ anion to no anion), Ratio + anion:no anion has been reported for the following molecule? O=P(O)(O)Oc1ccccc1.[Zn+2].[Zn+2].[Zn+2].c1ccc(-c2csc(NCCN(CCNc3nc(-c4ccccn4)cs3)CCNc3nc(-c4ccccn4)cs3)n2)nc1.c1ccc(-c2csc(NCCN(CCNc3nc(-c4ccccn4)cs3)CCNc3nc(-c4ccccn4)cs3)n2)nc1 [[L2Zn3(O3POPh)]4+]
Response: 2.24

Prompt: Next record, please: O=S(=O)([O-])[O-].[Cu+2].[Cu+2].[Cu+2].c1ccc(-c2csc(NCCN(CCNc3nc(-c4ccccn4)cs3)CCNc3nc(-c4ccccn4)cs3)n2)nc1.c1ccc(-c2csc(NCCN(CCNc3nc(-c4ccccn4)cs3)CCNc3nc(-c4ccccn4)cs3)n2)nc1 [[L2Cu3(SO4)]4+]
Response: 0.88

Prompt: Next record, please: [Cu+2].[Cu+2].[Cu+2].c1ccc(-c2csc(NCCN(CCNc3nc(-c4ccccn4)cs3)CCNc3nc(-c4ccccn4)cs3)n2)nc1.c1ccc(-c2csc(NCCN(CCNc3nc(-c4ccccn4)cs3)CCNc3nc(-c4ccccn4)cs3)n2)nc1 [[L2Cu3]6+]
Response: 1

Prompt: Next record, please: O=P([O-])([O-])[O-].[Cu+2].[Cu+2].[Cu+2].c1ccc(-c2csc(NCCN(CCNc3nc(-c4ccccn4)cs3)CCNc3nc(-c4ccccn4)cs3)n2)nc1.c1ccc(-c2csc(NCCN(CCNc3nc(-c4ccccn4)cs3)CCNc3nc(-c4ccccn4)cs3)n2)nc1 [[L2Cu3(PO4)]3+]
Response: 1.52

----------
test system: MCF10A non-cancer cells; experiment: Chemosensitivity, 96 h continuous exposure, MTT assay; format: cell-based, human; details: MCF10A non-cancer; read-out: Mean IC50 values
Reported property: log10 of IC50 (log10 of the value in µM)
For clarity, the numbers are log10 values of IC50 expressed in µM.

Prompt: What value of log10 of IC50 has been reported for the following compound? O=P([O-])([O-])[O-].[Cu+2].[Cu+2].[Cu+2].c1ccc(-c2csc(NCCN(CCNc3nc(-c4ccccn4)cs3)CCNc3nc(-c4ccccn4)cs3)n2)nc1.c1ccc(-c2csc(NCCN(CCNc3nc(-c4ccccn4)cs3)CCNc3nc(-c4ccccn4)cs3)n2)nc1 [[L2Cu3(PO4)]3+]
Response: 1.69

Prompt: Next record, please: CC(=O)[O-].CC(=O)[O-].CC(=O)[O-].O=P([O-])([O-])[O-].[Zn+2].[Zn+2].[Zn+2].c1ccc(-c2csc(NCCN(CCNc3nc(-c4ccccn4)cs3)CCNc3nc(-c4ccccn4)cs3)n2)nc1.c1ccc(-c2csc(NCCN(CCNc3nc(-c4ccccn4)cs3)CCNc3nc(-c4ccccn4)cs3)n2)nc1 [[L2Zn3(PO4)]3+]
Response: 1.16

Prompt: Next record, please: O=P([O-])([O-])Oc1ccccc1.[Cu+2].[Cu+2].[Cu+2].c1ccc(-c2csc(NCCN(CCNc3nc(-c4ccccn4)cs3)CCNc3nc(-c4ccccn4)cs3)n2)nc1.c1ccc(-c2csc(NCCN(CCNc3nc(-c4ccccn4)cs3)CCNc3nc(-c4ccccn4)cs3)n2)nc1 [[L2Cu3(O3POPh)]4+]
Response: 1.71

Prompt: Next record, please: O=S(=O)(O)O.[Zn+2].[Zn+2].[Zn+2].c1ccc(-c2csc(NCCN(CCNc3nc(-c4ccccn4)cs3)CCNc3nc(-c4ccccn4)cs3)n2)nc1.c1ccc(-c2csc(NCCN(CCNc3nc(-c4ccccn4)cs3)CCNc3nc(-c4ccccn4)cs3)n2)nc1 [[L2Zn3(SO4)]4+]
Response: 1.18

Prompt: Next record, please: [Cu+2].[Cu+2].[Cu+2].c1ccc(-c2csc(NCCN(CCNc3nc(-c4ccccn4)cs3)CCNc3nc(-c4ccccn4)cs3)n2)nc1.c1ccc(-c2csc(NCCN(CCNc3nc(-c4ccccn4)cs3)CCNc3nc(-c4ccccn4)cs3)n2)nc1 [[L2Cu3]6+]
Response: 1.68

Prompt: Next record, please: CC(=O)[O-].CC(=O)[O-].CC(=O)[O-].CC(=O)[O-].CC(=O)[O-].CC(=O)[O-].[Zn+2].[Zn+2].[Zn+2].c1ccc(-c2csc(NCCN(CCNc3nc(-c4ccccn4)cs3)CCNc3nc(-c4ccccn4)cs3)n2)nc1.c1ccc(-c2csc(NCCN(CCNc3nc(-c4ccccn4)cs3)CCNc3nc(-c4ccccn4)cs3)n2)nc1 [[L2Zn3]6+]
Response: 2.21

Prompt: Next record, please: O=P(O)(O)Oc1ccccc1.[Zn+2].[Zn+2].[Zn+2].c1ccc(-c2csc(NCCN(CCNc3nc(-c4ccccn4)cs3)CCNc3nc(-c4ccccn4)cs3)n2)nc1.c1ccc(-c2csc(NCCN(CCNc3nc(-c4ccccn4)cs3)CCNc3nc(-c4ccccn4)cs3)n2)nc1 [[L2Zn3(O3POPh)]4+]
Response: 1.72

Prompt: Next record, please: O=S(=O)([O-])[O-].[Cu+2].[Cu+2].[Cu+2].c1ccc(-c2csc(NCCN(CCNc3nc(-c4ccccn4)cs3)CCNc3nc(-c4ccccn4)cs3)n2)nc1.c1ccc(-c2csc(NCCN(CCNc3nc(-c4ccccn4)cs3)CCNc3nc(-c4ccccn4)cs3)n2)nc1 [[L2Cu3(SO4)]4+]
Response: 1.70

----------
tested on: HCT116 p53-/-; experiment: Chemosensitivity, 96 h continuous exposure, MTT assay; type: cell-based, human; conditions: HCT116 p53-/-; read-out: Mean IC50 values
pIC50: −log10 of the molar value.
Mark t for reported pIC50 of 7 or greater; mark f for anything smaller.

Prompt: Hello, I need to know if [Cu+2].c1ccc(-c2csc(NCCN(CCNc3nc(-c4ccccn4)cs3)CCNc3nc(-c4ccccn4)cs3)n2)nc1 [[LCu]2+] has measured pIC50 not below 7. Thanks!
Response: t

Prompt: Next record, please: [Mn+2].[Mn+2].[Mn+2].c1ccc(-c2csc(NCCN(CCNc3nc(-c4ccccn4)cs3)CCNc3nc(-c4ccccn4)cs3)n2)nc1.c1ccc(-c2csc(NCCN(CCNc3nc(-c4ccccn4)cs3)CCNc3nc(-c4ccccn4)cs3)n2)nc1 [[L2Mn3]6+]
Response: f

Prompt: Next record, please: O=P([O-])([O-])[O-].[Cu+2].[Cu+2].[Cu+2].c1ccc(-c2csc(NCCN(CCNc3nc(-c4ccccn4)cs3)CCNc3nc(-c4ccccn4)cs3)n2)nc1.c1ccc(-c2csc(NCCN(CCNc3nc(-c4ccccn4)cs3)CCNc3nc(-c4ccccn4)cs3)n2)nc1 [[L2Cu3(PO4)]3+]
Response: f

----------
tested on: HT-29; experiment: Chemosensitivity, 96 h continuous exposure, MTT assay; type: cell-based, human; details: ratio of SI (MCF 10A), HT29
Reported property: Selectivity indices relative to MCF10A, Ratio + anion:no anion
Please give the numeric answer without any surrounding text.

Prompt: What value of Selectivity indices relative to MCF10A, Ratio + anion:no anion has been reported for the following molecule? O=S(=O)(O)O.[Zn+2].[Zn+2].[Zn+2].c1ccc(-c2csc(NCCN(CCNc3nc(-c4ccccn4)cs3)CCNc3nc(-c4ccccn4)cs3)n2)nc1.c1ccc(-c2csc(NCCN(CCNc3nc(-c4ccccn4)cs3)CCNc3nc(-c4ccccn4)cs3)n2)nc1 [[L2Zn3(SO4)]4+]
Response: 0.067

Prompt: Next record, please: [Cu+2].[Cu+2].[Cu+2].c1ccc(-c2csc(NCCN(CCNc3nc(-c4ccccn4)cs3)CCNc3nc(-c4ccccn4)cs3)n2)nc1.c1ccc(-c2csc(NCCN(CCNc3nc(-c4ccccn4)cs3)CCNc3nc(-c4ccccn4)cs3)n2)nc1 [[L2Cu3]6+]
Response: 1

Prompt: Next record, please: CC(=O)[O-].CC(=O)[O-].CC(=O)[O-].O=P([O-])([O-])[O-].[Zn+2].[Zn+2].[Zn+2].c1ccc(-c2csc(NCCN(CCNc3nc(-c4ccccn4)cs3)CCNc3nc(-c4ccccn4)cs3)n2)nc1.c1ccc(-c2csc(NCCN(CCNc3nc(-c4ccccn4)cs3)CCNc3nc(-c4ccccn4)cs3)n2)nc1 [[L2Zn3(PO4)]3+]
Response: 0.070

Prompt: Next record, please: O=P([O-])([O-])[O-].[Cu+2].[Cu+2].[Cu+2].c1ccc(-c2csc(NCCN(CCNc3nc(-c4ccccn4)cs3)CCNc3nc(-c4ccccn4)cs3)n2)nc1.c1ccc(-c2csc(NCCN(CCNc3nc(-c4ccccn4)cs3)CCNc3nc(-c4ccccn4)cs3)n2)nc1 [[L2Cu3(PO4)]3+]
Response: 0.672

Prompt: Next record, please: O=S(=O)([O-])[O-].[Cu+2].[Cu+2].[Cu+2].c1ccc(-c2csc(NCCN(CCNc3nc(-c4ccccn4)cs3)CCNc3nc(-c4ccccn4)cs3)n2)nc1.c1ccc(-c2csc(NCCN(CCNc3nc(-c4ccccn4)cs3)CCNc3nc(-c4ccccn4)cs3)n2)nc1 [[L2Cu3(SO4)]4+]
Response: 1.173
